Target: T1, orthogonal hCD122 receptor (hoRb), hCD122 with H133D and Y134F (human, UniProt P14784 27-550); also: reference of the scale not given here
T1 sequence: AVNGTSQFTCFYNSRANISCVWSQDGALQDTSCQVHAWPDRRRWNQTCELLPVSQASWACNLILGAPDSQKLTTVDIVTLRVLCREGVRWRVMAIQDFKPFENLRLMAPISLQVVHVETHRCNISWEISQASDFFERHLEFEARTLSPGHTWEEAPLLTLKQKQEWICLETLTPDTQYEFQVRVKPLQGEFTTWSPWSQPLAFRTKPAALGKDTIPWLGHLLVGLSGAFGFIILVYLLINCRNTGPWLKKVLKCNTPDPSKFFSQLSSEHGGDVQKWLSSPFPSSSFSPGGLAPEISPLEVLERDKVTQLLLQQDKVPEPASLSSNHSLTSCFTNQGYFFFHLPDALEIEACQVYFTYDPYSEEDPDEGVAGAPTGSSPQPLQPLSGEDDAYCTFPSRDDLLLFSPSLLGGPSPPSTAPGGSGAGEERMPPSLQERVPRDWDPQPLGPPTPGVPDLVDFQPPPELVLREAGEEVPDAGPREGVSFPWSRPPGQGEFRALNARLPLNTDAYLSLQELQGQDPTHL
Experiment: cell-based or functional assay
Some binders, each annotated with its measured Relative Proliferation Fold Change 3F8 1:50.
Write the number in fold without appending the unit.

The examples below pair each entry with its known result.
| Binder | Endpoint result |
| --- | --- |
| T3G, SQVLKA (ligand) APGSSSTKKTQLQLSQLLVLLKAILNGINNYKNPKLTRMLTFKFYMPKKATELKHLQCLEEELKPLEEVLNLAQSKNFHLRPRDLISNINVIVLELKGSETTFMCEYADETATIVEFLNRWITFCQSIISTLT | 7.14 |
| N88E, SQVLKA (ligand) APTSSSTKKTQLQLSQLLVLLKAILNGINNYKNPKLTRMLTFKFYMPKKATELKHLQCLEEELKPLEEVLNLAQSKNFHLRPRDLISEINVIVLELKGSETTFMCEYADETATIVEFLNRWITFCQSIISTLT | 1.44 |
| L14W, SQVLKA (ligand) APTSSSTKKTQLQWSQLLVLLKAILNGINNYKNPKLTRMLTFKFYMPKKATELKHLQCLEEELKPLEEVLNLAQSKNFHLRPRDLISNINVIVLELKGSETTFMCEYADETATIVEFLNRWITFCQSIISTLT | 16.5 |

The measured Relative Proliferation Fold Change 3F8 1:50 associated with Q126S, SQVLKA (ligand) APTSSSTKKTQLQLSQLLVLLKAILNGINNYKNPKLTRMLTFKFYMPKKATELKHLQCLEEELKPLEEVLNLAQSKNFHLRPRDLISNINVIVLELKGSETTFMCEYADETATIVEFLNRWITFCSSIISTLT reads 1.6
